Condition: in sec-butanol, 298.15 K

# Smiles, solubility (mole fraction)
measured = [
    ("Nc1n[nH]c(=S)s1", 0.00397),
]

----------
Condition: in ethyl acetate, 283.15 K

# Smiles, solubility (mole fraction)
measured = [
    ("Nc1n[nH]c(=S)s1", 0.00203),
]

----------
Condition: in isobutanol, 283.15 K

# Smiles, solubility (mole fraction)
rows = [
    ("Nc1n[nH]c(=S)s1", 0.00148),
]

----------
Condition: in methanol, 298.15 K

# Smiles, solubility (mole fraction)
measured = [
    ("Nc1n[nH]c(=S)s1", 0.00617),
]

----------
Condition: in ethyl acetate, 318.15 K
Measured Metric: solubility (mole fraction)

# Smiles, Measured Result
rows = [
    ("Nc1n[nH]c(=S)s1", 0.0035),
]
